# TEST SUMMARY: Metabolic stability in CD-1 […] liver microsomes by HPLC-MS/MS
# Assay type: ADME, Microsome
# CONDITION PARAMETERS: CD-1, liver microsomes
PROPERTY NAME: half-life (min)

Worked cases, answers included:
COMPOUND: Cc1cc(-c2cccc3cc[nH]c23)c(C#N)c2c1NC(C)(C)[C@H](O)[C@H]2C (racemic)
half-life (min): 13
--
COMPOUND: Cc1c(F)c(-c2cccc3cc[nH]c23)cc2c1NC(C)(C)[C@H](O)[C@H]2C (racemic)
half-life (min): 16
--
COMPOUND: Cc1cc(-c2cccc3cc[nH]c23)c(Cl)c2c1NC(C)(C)[C@H](O)[C@H]2C (racemic)
half-life (min): 3.3
--
COMPOUND: C[C@H]1c2c(cc(F)c(-c3cccc4cc[nH]c34)c2F)NC(C)(C)[C@@H]1O (racemic)
half-life (min): 30

P = C[C@H]1c2c(Cl)c(-c3cccc4cc[nH]c34)cc(F)c2NC(C)(C)[C@@H]1O (racemic)
Q = Cc1c(Cl)c(-c2cccc3cc[nH]c23)cc2c1NC(C)(C)[C@H](O)[C@H]2C (racemic)
// returns P or Q , whichever has the lower half-life Which one? Tell me its label.
P

---

# STUDY SYSTEM: Glucocorticoid receptor (Homo sapiens, UniProt P04150)
# Sequence (P04150 whole entry): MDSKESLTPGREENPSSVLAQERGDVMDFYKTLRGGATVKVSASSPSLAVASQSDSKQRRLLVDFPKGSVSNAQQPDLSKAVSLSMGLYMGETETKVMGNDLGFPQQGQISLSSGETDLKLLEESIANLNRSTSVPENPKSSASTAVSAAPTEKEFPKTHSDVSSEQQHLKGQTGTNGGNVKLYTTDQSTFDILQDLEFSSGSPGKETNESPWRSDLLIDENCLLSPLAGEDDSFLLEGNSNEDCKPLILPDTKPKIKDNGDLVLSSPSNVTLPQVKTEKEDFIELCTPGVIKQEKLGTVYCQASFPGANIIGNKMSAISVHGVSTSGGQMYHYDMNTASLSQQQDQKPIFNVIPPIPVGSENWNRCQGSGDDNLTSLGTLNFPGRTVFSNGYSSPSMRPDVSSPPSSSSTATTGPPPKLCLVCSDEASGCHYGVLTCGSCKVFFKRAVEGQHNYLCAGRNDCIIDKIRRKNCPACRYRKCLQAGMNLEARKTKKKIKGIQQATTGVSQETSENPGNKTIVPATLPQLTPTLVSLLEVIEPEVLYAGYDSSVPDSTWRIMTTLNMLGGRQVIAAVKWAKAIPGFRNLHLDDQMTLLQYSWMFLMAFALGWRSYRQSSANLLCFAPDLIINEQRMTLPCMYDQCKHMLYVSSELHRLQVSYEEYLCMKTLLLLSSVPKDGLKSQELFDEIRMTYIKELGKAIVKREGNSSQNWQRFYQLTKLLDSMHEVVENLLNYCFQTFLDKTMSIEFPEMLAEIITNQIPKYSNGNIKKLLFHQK
# TEST SUMMARY: Agonist activity at GR expressed in african green monkey CV1 cells transfected with luciferase gene linked to MMTV promoter assessed as induction of luciferase transactivation activity relative to Dexamethasone
PROPERTY NAME: EC50 (µM)

MOLECULE: CCO/N=C/c1c(-c2cccc3cc[nH]c23)cc(C)c2c1[C@H](C)[C@@H](O)C(C)(C)N2 (racemic)
RECORDED MEASUREMENT: 0.0002

P = Cc1c(F)c(-c2cccc3cc[nH]c23)cc2c1NC(C)(C)[C@H](O)[C@H]2C (racemic)
Q = Cc1cc(-c2cccc3cc[nH]c23)c(/C=N/OCc2ccccc2)c2c1NC(C)(C)[C@H](O)[C@H]2C (racemic)
R = C=Cc1c(-c2cccc3cc[nH]c23)cc2c(c1C)NC(C)(C)[C@H](O)[C@H]2C (racemic)
Arrange these molecules by their EC50, starting with the largest number. As an answer, provide the labels arranged in the order called for.
P, R, Q
(P: 0.04 µM, R: 0.018 µM, Q: 0.0037 µM)

1 = C[C@H]1c2cc(-c3cccc4cc[nH]c34)c(F)c(F)c2NC(C)(C)[C@@H]1O (racemic)
2 = Cc1cc(-c2cccc3cc[nH]c23)c(/C=N/O)c2c1NC(C)(C)[C@H](O)[C@H]2C (racemic)
3 = Cc1c(-c2cccc3cc[nH]c23)cc2c(c1C)NC(C)(C)[C@H](O)[C@H]2C (racemic)
4 = C[C@H]1c2c(cc(Cl)c(-c3cccc4cc[nH]c34)c2Cl)NC(C)(C)[C@@H]1O (racemic)
Let's sort these by EC50, smallest first. Go ahead? As an answer, provide the labels arranged in the order called for.
1, 2, 3, 4
(1: 0.011 µM, 2: 0.105 µM, 3: 0.205 µM, 4: 0.48 µM)

---

Target protein (sequence): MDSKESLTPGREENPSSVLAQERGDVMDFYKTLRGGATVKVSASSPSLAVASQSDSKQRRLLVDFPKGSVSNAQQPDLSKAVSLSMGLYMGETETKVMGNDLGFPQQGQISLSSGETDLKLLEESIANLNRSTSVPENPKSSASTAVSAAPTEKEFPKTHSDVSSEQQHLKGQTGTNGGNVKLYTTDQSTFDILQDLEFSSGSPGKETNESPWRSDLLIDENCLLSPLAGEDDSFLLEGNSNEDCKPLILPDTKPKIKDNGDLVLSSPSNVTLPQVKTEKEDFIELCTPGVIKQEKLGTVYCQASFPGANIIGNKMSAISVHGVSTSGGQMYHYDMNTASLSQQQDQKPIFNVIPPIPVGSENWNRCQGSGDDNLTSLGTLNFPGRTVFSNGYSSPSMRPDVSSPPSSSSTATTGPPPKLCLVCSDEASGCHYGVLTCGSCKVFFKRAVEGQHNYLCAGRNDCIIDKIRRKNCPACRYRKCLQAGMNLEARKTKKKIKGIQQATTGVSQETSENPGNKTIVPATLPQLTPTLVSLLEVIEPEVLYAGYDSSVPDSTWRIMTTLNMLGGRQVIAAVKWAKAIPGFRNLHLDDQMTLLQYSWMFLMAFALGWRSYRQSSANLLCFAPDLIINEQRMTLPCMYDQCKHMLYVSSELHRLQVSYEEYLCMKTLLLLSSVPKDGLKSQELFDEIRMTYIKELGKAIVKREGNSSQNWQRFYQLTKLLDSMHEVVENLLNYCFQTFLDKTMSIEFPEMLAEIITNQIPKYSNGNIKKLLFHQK
pKi: −log10 of the molar value.
PROPERTY NAME: pKi

Worked cases, answers included:
COMPOUND: Cc1c2c(cc(-c3cccc4cc[nH]c34)c1C(F)(F)F)[C@H](C)[C@@H](O)C(C)(C)N2 (racemic)
RECORDED MEASUREMENT: 6.97

COMPOUND: Cc1cc(-c2cccc3cc[nH]c23)c(C)c2c1NC(C)(C)[C@H](O)[C@H]2C (racemic)
RECORDED MEASUREMENT: 8.92

COMPOUND: Cc1cc(-c2cccc3cc[nH]c23)c(/C=N/O)c2c1NC(C)(C)[C@H](O)[C@H]2C (racemic)
RECORDED MEASUREMENT: 6.50

COMPOUND: C[C@H]1c2c(cc(F)c(-c3cccc4cc[nH]c34)c2F)NC(C)(C)[C@@H]1O (racemic)
RECORDED MEASUREMENT: 8.60

COMPOUND: CCc1c(-c2cccc3cc[nH]c23)cc(C)c2c1[C@H](C)[C@@H](O)C(C)(C)N2 (racemic)
RECORDED MEASUREMENT: 7.93

a = C[C@H]1c2c(F)c(-c3cccc4cc[nH]c34)c(F)c(F)c2NC(C)(C)[C@@H]1O (racemic)
b = Cc1cc(-c2cccc3cc[nH]c23)c(F)c2c1NC(C)(C)[C@H](O)[C@H]2C (racemic)
Rank a against b by their pKi values and give the higher one. Which one? Tell me its label.
b
(b: 8.64, a: 8.30)

---

# TEST SUMMARY: Apparent half life in Sprague-Dawley rat at 30 mg/kg, po
# Format: ADME, organism-based
# Set-up: dose 30 mg/kg, route oral
# CONDITION PARAMETERS: in vivo
PROPERTY NAME: half-life (min)
Give the quantity in min, number only.

Kindly indicate its recorded half-life. Item: C[C@H]1c2c(cc(F)c(-c3cccc4cc[nH]c34)c2F)NC(C)(C)[C@@H]1O (racemic)
192

---

# STUDY SYSTEM: Glucocorticoid receptor (Homo sapiens, UniProt P04150)
# TEST SUMMARY: Agonist activity at GR expressed in african green monkey CV1 cells transfected with luciferase gene linked to MMTV promoter assessed as induction of luciferase transactivation activity relative to Dexamethasone
PROPERTY NAME: EC50 (nM)

Worked cases, answers included:
MOLECULE: Cc1cc(-c2cccc3cc[nH]c23)c(/C=C/C#N)c2c1NC(C)(C)[C@H](O)[C@H]2C (racemic)
UNIT SPEC: nM
EC50: 5.7

MOLECULE: Cc1cc(-c2cccc3cc[nH]c23)c(C)c2c1NC(C)(C)[C@H](O)[C@H]2C (racemic)
UNIT SPEC: nM
EC50: 0.9

MOLECULE: C=Cc1c(-c2cccc3cc[nH]c23)cc(C)c2c1[C@H](C)[C@@H](O)C(C)(C)N2 (racemic)
UNIT SPEC: nM
EC50: 40

MOLECULE: Cc1c(Cl)c(-c2cccc3cc[nH]c23)cc2c1NC(C)(C)[C@H](O)[C@H]2C (racemic)
UNIT SPEC: nM
EC50: 36

MOLECULE: C[C@H]1c2c(cc(F)c(-c3cccc4cc[nH]c34)c2F)NC(C)(C)[C@@H]1O (racemic)
UNIT SPEC: nM
EC50: 0.6

I = Cc1cc(-c2cccc3cc[nH]c23)c(F)c2c1NC(C)(C)[C@H](O)[C@H]2C (racemic)
II = CCc1c(-c2cccc3cc[nH]c23)cc(C)c2c1[C@H](C)[C@@H](O)C(C)(C)N2 (racemic)
III = Cc1cc(-c2cccc3cc[nH]c23)cc2c1NC(C)(C)[C@H](O)[C@H]2C (racemic)
IV = Cc1cc(-c2cccc3cc[nH]c23)c(/C=N/OC(C)(C)C)c2c1NC(C)(C)[C@H](O)[C@H]2C (racemic)
Arrange these molecules by their EC50, starting with the largest number. As an answer, provide the labels arranged in the order called for.
III, I, IV, II

1 = C[C@H]1c2c(F)c(-c3cccc4cc[nH]c34)c(F)c(Cl)c2NC(C)(C)[C@@H]1O (racemic)
2 = CC(=O)/C=C/c1c(-c2cccc3cc[nH]c23)cc(C)c2c1[C@H](C)[C@@H](O)C(C)(C)N2 (racemic)
// returns 1 or 2 , whichever has the lower EC50 Which one? Tell me its label.
1

I = CO/N=C/c1c(-c2cccc3cc[nH]c23)cc(C)c2c1[C@H](C)[C@@H](O)C(C)(C)N2 (racemic)
II = C[C@H]1c2c(Cl)c(-c3cccc4cc[nH]c34)cc(F)c2NC(C)(C)[C@@H]1O (racemic)
III = Cc1cc(-c2cccc3cc[nH]c23)c(C#N)c2c1NC(C)(C)[C@H](O)[C@H]2C (racemic)
IV = C[C@H]1c2c(F)c(-c3cccc4cc[nH]c34)c(F)c(F)c2NC(C)(C)[C@@H]1O (racemic)
Let's sort these by EC50, smallest first. Go ahead? As an answer, provide the labels arranged in the order called for.
I, III, IV, II
(I: 0.4 nM, III: 9.6 nM, IV: 16 nM, II: 89 nM)
